molecular target: GSTP1 C48 (P09211) (Homo sapiens, UniProt P09211); assay: Competitive isoTOP-ABPP, cell lysates; type: binding; conditions: 500 μM, invitro, 231
Sequence (P09211 whole entry): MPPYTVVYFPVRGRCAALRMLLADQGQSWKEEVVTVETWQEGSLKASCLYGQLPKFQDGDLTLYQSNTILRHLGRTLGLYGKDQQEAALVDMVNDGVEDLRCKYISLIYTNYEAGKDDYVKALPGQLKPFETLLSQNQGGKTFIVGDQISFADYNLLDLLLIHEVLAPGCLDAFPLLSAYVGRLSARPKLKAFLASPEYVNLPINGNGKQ
Outcome measure: isoTOP-ABPP ratio, P09211_C48
One number for each entry.

Solved cases below.
> print(dat)
                                smiles.code                outcome.measure  readout.number
1  C=CC(=O)N(Cc1cccnc1)c1ccc(Oc2ccccc2)c(C(F)(F)F)c1  isoTOP-ABPP ratio, P09211_C48             2.5
2               O=C(CCl)NCCc1c[nH]c2ccccc12  isoTOP-ABPP ratio, P09211_C48             1.5

Report isoTOP-ABPP ratio, P09211_C48 for each item below.
1. CNS(=O)(=O)C=Cc1ccc2c(ccn2Cc2ccccc2)c1
2. Cn1cc(S(=O)(=O)N2CCOCC2)cc1C(=O)NC(=O)CCl
3. O=C(CCl)N1CCN(S(=O)(=O)c2ccccc2F)CC1
4. C=CC(=O)N(c1ccccc1)c1ccc(Br)cc1

Result block:
1.2
1.7
1.4
2.2

Query block: Checklist item: isoTOP-ABPP ratio, P09211_C48 tested on GSTP1 C48 (P09211) (Homo sapiens, UniProt P09211), entry "O=C(CCl)NC(=O)NC12CC3CC(CC(C3)C1)C2" , value?
Result block: 2.9

----------
Exercise: for every item that follows, state its recorded isoTOP-ABPP ratio, O14980_C34.
target: XPO1 C34 (O14980) (Homo sapiens, UniProt O14980); assay: Competitive isoTOP-ABPP, cell lysates; format: binding; conditions: 500 μM, invitro, ramos
Sequence (O14980 whole entry): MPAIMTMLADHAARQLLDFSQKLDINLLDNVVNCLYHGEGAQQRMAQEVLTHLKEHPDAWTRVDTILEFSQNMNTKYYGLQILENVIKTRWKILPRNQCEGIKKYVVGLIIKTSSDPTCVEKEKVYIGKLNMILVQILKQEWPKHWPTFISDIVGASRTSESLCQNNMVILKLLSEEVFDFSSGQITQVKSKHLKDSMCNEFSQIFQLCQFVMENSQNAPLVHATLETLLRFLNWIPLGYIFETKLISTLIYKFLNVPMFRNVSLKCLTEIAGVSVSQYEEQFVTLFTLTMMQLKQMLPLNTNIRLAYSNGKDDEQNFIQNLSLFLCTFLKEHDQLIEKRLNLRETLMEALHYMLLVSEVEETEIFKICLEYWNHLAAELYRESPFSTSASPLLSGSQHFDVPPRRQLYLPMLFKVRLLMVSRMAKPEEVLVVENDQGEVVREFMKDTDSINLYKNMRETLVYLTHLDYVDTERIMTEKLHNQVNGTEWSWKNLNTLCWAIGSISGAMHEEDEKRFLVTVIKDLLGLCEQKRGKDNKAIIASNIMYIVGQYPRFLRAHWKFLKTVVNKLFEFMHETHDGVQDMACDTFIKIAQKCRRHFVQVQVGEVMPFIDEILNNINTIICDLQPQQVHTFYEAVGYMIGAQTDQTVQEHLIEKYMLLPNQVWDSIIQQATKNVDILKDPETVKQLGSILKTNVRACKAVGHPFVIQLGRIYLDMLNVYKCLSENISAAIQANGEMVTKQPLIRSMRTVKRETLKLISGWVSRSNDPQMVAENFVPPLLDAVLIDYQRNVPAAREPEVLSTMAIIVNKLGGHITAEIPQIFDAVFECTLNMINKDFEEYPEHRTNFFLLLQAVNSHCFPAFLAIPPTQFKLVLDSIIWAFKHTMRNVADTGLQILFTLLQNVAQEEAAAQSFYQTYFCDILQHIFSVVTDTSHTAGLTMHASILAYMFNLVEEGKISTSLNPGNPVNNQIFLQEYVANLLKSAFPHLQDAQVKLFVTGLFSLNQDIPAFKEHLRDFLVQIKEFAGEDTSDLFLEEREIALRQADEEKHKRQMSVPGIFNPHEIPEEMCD
Give bare numbers.

> print(dat)
                                   compound  readout.number
1  O=C(CCl)NC(=O)NC12CC3CC(CC(C3)C1)C2 [compound 12]             0.7
2  O=C(CCl)NCCc1c[nH]c2ccccc12 [compound 13]             0.7
3  Cn1cc(S(=O)(=O)N2CCOCC2)cc1C(=O)NC(=O)CCl [compound 11]             1.0

Report isoTOP-ABPP ratio, O14980_C34 for each item below.
1. C=CC(=O)N(c1ccccc1)c1ccc(Br)cc1 [compound 5]
2. O=C(CCl)N1CCN(S(=O)(=O)c2ccccc2F)CC1 [compound 10]

Result block:
1.2
0.7

----------
molecular target: cysteines in MDA-MB-231 and Ramos cells (Homo sapiens, UniProt Q96F86); assay: Competitive isoTOP-ABPP in situ (fragment-treated cells); type: cell-based; conditions: 200 μM, insitu, ramos
Sequence (Q96F86 whole entry, the tested form may be a part): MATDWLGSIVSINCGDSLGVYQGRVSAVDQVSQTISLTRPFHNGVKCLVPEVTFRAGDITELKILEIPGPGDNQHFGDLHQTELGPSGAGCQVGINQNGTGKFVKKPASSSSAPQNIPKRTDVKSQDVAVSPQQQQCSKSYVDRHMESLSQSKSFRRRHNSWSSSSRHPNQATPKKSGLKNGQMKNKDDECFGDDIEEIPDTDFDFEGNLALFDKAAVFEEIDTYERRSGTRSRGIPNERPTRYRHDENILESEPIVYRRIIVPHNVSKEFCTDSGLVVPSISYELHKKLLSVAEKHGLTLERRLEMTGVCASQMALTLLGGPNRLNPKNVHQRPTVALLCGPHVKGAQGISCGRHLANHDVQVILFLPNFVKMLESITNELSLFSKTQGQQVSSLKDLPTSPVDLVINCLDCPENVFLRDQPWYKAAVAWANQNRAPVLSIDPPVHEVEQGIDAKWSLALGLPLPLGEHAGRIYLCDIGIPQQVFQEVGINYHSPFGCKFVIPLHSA
Exercise: for every item that follows, state its recorded isoTOP-ABPP ratio Q96F86_C413.
Answers are plain numbers.

> print(dat)
                                smiles.code                outcome.measure  readout.number
1  C=CC(=O)N(Cc1cccnc1)c1cc(C(F)(F)F)cc(C(F)(F)F)c1  isoTOP-ABPP ratio Q96F86_C413             1.3
2      O=C(CCl)N1CCN(S(=O)(=O)c2ccccc2F)CC1  isoTOP-ABPP ratio Q96F86_C413            20.0
3          O=C(CCl)N1CCN(CC(=O)N2CCOCC2)CC1  isoTOP-ABPP ratio Q96F86_C413             1.9

Next:
Query block: What measured isoTOP-ABPP ratio Q96F86_C413 goes with "O=C(CCl)NCCc1c[nH]c2ccccc12" ?
Result block: 2.0
